# Tested On: thrombin receptor (PAR-1) (Homo sapiens)
# Construct: CHRF membranes (Jones, Biochim. Biophys. Acta 1992, 1136, 272) are thawed from −70° C; endogenous in cells
# Sequence (P25116 22-425): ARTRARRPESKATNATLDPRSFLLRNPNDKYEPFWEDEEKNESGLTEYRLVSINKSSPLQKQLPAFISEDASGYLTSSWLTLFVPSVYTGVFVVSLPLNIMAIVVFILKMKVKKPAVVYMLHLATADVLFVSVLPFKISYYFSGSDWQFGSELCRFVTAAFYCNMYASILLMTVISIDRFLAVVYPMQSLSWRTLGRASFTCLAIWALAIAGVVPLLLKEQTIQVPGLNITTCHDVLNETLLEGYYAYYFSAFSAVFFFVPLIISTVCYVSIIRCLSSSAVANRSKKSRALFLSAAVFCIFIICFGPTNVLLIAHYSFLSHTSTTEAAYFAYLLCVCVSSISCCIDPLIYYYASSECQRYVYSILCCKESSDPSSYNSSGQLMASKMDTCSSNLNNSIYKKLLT
# Assay: In vitro thrombin receptor binding assay (CHRF membranes)
# Test Context: tritiated 721-40 radioligand, read-out: Bndg IC50 (Thrombin receptor binding)
Parameter pIC50: see the listing below.
Just the number, please; pIC50 means minus log10 of the concentration in mol/L.

Sample answers from the record:
N=C(N)NCCC[C@H](NC(=O)[C@H](Cc1cccs1)NC(=O)Nc1ccc2c(CN3CCCC3)cn(Cc3ccc(F)cc3)c2c1)C(=O)NCc1ccccc1 ... 5.39
COc1ccc(C[C@H](NC(=O)Nc2ccc3c(CNC4CCCC4)cn(Cc4ccc(F)cc4)c3c2)C(=O)N[C@@H](CCCNC(=N)N)C(=O)NCc2ccccc2)cc1 ... 4.97
NCCNC(=O)[C@H](CO)NC(=O)[C@H](Cc1ccc(F)c(F)c1)NC(=O)Nc1ccc2c(CN3CCCC3)cn(Cc3c(Cl)cccc3Cl)c2c1 ... 7.00
NCC[C@H](NC(=O)[C@H](Cc1cscn1)NC(=O)Nc1ccc2c(CN3CCCC3)cn(Cc3c(Cl)cccc3Cl)c2c1)C(=O)NCc1ccccc1 ... 5.38
CC(=N)NCCC[C@H](NC(=O)[C@H](Cc1ccc(F)c(F)c1)NC(=O)Nc1ccc2c(CN3CCCC3)cn(Cc3c(Cl)cccc3Cl)c2c1)C(=O)NCc1ccccc1 ... 6.43
N=C(N)NCCC[C@H](NC(=O)[C@@H](Cc1ccc(F)c(F)c1)NC(=O)Nc1ccc2c(CN3CCCC3)cn(Cc3c(Cl)cccc3Cl)c2c1)C(=O)NCc1ccccc1 ... 5.49

# input compound: "NCC[C@H](NC(=O)[C@H](Cc1ccc(F)c(F)c1)NC(=O)Nc1ccc2c(c1)c(CN1CCCC1)cn2Cc1ccc(F)cc1)C(=O)NCc1ccccc1" ; wanted: its pIC50
4.93

# input compound: "COc1ccc(C[C@H](NC(=O)Nc2ccc3c(CN4CCCC4)cn(Cc4ccc(F)cc4)c3c2)C(=O)N[C@@H](CCCNC(=N)N)C(=O)NCCCc2ccccc2)cc1" ; wanted: its pIC50
5.89

# input compound: "N=C(N)NCCC[C@H](NC(=O)[C@H](Cc1ccccc1Cl)NC(=O)Nc1ccc2c(CN3CCCCC3)cn(Cc3c(Cl)cccc3Cl)c2c1)C(=O)NCc1ccccc1" ; wanted: its pIC50
6.29

# input compound: "NCC[C@H](NC(=O)[C@H](Cc1cccs1)NC(=O)Nc1ccc2c(CN3CCCC3)cn(Cc3c(Cl)cccc3Cl)c2c1)C(=O)NCc1ccccc1" ; wanted: its pIC50
5.72

# input compound: "COc1ccc(C[C@H](NC(=O)Nc2ccc3c(CN4CCCC4)cn(Cc4ccc(C#N)cc4)c3c2)C(=O)N[C@@H](CCCNC(=N)N)C(=O)NCc2ccccc2)cc1" ; wanted: its pIC50
5.35

Recorded values, source patent US7183252B2.
